Quick reference for CDK2 % Inhibition at 0.03 μM among some molecules
molecular target: CDK2/Cyclin A (Homo sapiens, UniProt P24941); experiment: Inhibition of CDK2/Cyclin A Retinoblastoma Kinase Activity; assay type: biochemical; settings: 0.03 μM compound; Table 4
Note: unit % is implicit; provide only the numeric part.

The examples below pair each entry with its known result.
{"columns": ["entrySmiles", "CDK2 % Inhibition at 0.03 μM [%]"],
 "data": [
  ["COC(=O)CCC(=O)N1CCC(Nc2nc(N)c(C(=O)c3c(F)cccc3F)s2)CC1", 16],
  ["Cc1ccc(C(=O)N2CCC(Nc3nc(N)c(C(=O)c4c(F)cccc4F)s3)CC2)cc1", 35],
  ["CC(C)=CC(=O)N1CCC(Nc2nc(N)c(C(=O)c3c(F)cccc3F)s2)CC1", "−19"],
  ["COc1ccc(C(=O)N2CCC(Nc3nc(N)c(C(=O)c4c(F)cccc4F)s3)CC2)cc1OC", "−23"]
]}

Now, please, on to the next molecule.
Enquiry: Give recorded CDK2 % Inhibition at 0.03 μM. "Nc1nc(NC2CCN(C(=O)/C=C/c3ccccc3)CC2)sc1C(=O)c1c(F)cccc1F"
Return: 21
